Target: human NPFFR1 (Homo sapiens, UniProt Q9GZQ6)
Sequence (Q9GZQ6 whole entry): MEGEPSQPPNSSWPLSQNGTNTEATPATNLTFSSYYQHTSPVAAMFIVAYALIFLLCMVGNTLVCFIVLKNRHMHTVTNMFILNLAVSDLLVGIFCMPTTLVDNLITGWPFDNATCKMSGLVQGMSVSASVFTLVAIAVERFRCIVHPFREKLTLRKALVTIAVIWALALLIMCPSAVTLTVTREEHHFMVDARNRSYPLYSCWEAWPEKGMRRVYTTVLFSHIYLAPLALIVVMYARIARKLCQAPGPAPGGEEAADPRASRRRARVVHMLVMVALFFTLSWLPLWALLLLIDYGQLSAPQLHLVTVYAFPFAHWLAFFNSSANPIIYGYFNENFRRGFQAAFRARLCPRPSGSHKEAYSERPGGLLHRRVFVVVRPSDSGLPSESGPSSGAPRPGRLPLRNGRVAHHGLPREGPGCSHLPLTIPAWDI
Test: Lance cAMP assay, NPFFR1-CHO cells
Assay type: cell-based
recorded-metric: Kb (nM)

Examples with their reported Kb follow.
[
  {
    "smiles-str": "CSc1ccc(CN[C@H]2C[C@@H](C(=O)NCCc3ccc(F)c(F)c3)N(Cc3ccccc3Cl)C2)cc1",
    "Kb / nM": 1070
  },
  {
    "smiles-str": "CCCCCCNC(=O)[C@@H]1C[C@H](NCc2ccc(OC)cc2)CN1Cc1ccccc1Cl",
    "Kb / nM": 1980
  },
  {
    "smiles-str": "CCCCCNC(=O)[C@@H]1C[C@H](NCc2ccc(SC)cc2)CN1Cc1ccccc1Cl",
    "Kb / nM": 1070
  },
  {
    "smiles-str": "CSc1ccc(CN[C@H]2C[C@@H](C(=O)NCCc3ccccc3)N(Cc3ccccc3Cl)C2)cc1",
    "Kb / nM": 1300
  }
]

1. COc1ccc(CN[C@H]2C[C@@H](C(=O)NCCc3ccc(OC)c(OC)c3)N(Cc3ccccc3Cl)C2)cc1
2. CCCN(CCC)C(=O)[C@@H]1C[C@H](NCc2ccc(OC)cc2)CN1Cc1ccccc1Cl
3. CCCCCNC(=O)[C@@H]1C[C@H](NCc2ccc(OC)cc2)CN1Cc1ccccc1Cl
# desc sort on Kb across 3 compounds Rank them, then answer with their labels in that order.
2, 1, 3

Origin of values: paper PMC6777341
